test system: HepG2 cells transduced with AdCYP2D6; experiment: HCS hepatotoxicity assay (MEC, TR), AdCYP2D6-HepG2; assay type: cell-based, human; conditions: AdCYP 2D6 10x; 24 h; unit inferred, tested range in µM
VALUE_KIND: MEC Mitochondrial superoxide (µM)
Numeric answer only, unit µM assumed.

Problem: So what's the measured MEC Mitochondrial superoxide for this one? C1CCC(C(CC2CCCCN2)C2CCCCC2)CC1 (stereo not shown)
Solution: 22.5

----------
test system: HepG2 cells transduced with AdCYP2C19; test: HCS hepatotoxicity assay (MEC, TR), AdCYP2C19-HepG2; assay type: cell-based, human; settings: AdCYP 2C19 1x; 24 h; unit inferred, tested range in µM
VALUE_KIND: MEC Mitochondrial superoxide (µM)
Numeric answer only, unit µM assumed.

Problem: So what's the measured MEC Mitochondrial superoxide for this one? CC(C)C(=O)Nc1ccc([N+](=O)[O-])c(C(F)(F)F)c1 [Flutamide]
Solution: 250

----------
test system: HepG2 cells transduced with AdCYP2C9; experiment: HCS hepatotoxicity assay (MEC, TR), AdCYP2C9-HepG2; format: cell-based, human; settings: AdCYP 2C9 4x; 24 h; unit inferred, tested range in µM
VALUE_KIND: MEC Apoptosis (µM)
Numeric answer only, unit µM assumed.

Problem: Lab request: please report MEC Apoptosis under test system HepG2 cells transduced with AdCYP2C9 for O=C(O)COc1ccc(C(=O)c2cccs2)c(Cl)c1Cl
Solution: 400

----------
system: HepG2 cells transduced with AdCYP2B6; experiment: HCS hepatotoxicity assay (MEC, TR), AdCYP2B6-HepG2; type: cell-based, human; settings: CYP2B6-10X; 24 h; unit inferred, tested range in mM
VALUE_KIND: MEC ROS (mM)
Numeric answer only, unit mM assumed.

Problem: So what's the measured MEC ROS for this one? CCCC(CCC)C(=O)O
Solution: 8

----------
test system: HepG2 cells transduced with AdCYP2C19; experiment: HCS hepatotoxicity assay (MEC, TR), AdCYP2C19-HepG2; format: cell-based, human; conditions: AdCYP 2C19 10x; 24 h; unit inferred, tested range in µM
VALUE_KIND: MEC Calcium
Quick note: unit goes after the number.

Problem: Lab request: please report MEC Calcium under test system HepG2 cells transduced with AdCYP2C19 for CC(C)C(=O)Nc1ccc([N+](=O)[O-])c(C(F)(F)F)c1 [Flutamide]
Solution: 75 µM

Attribution: paper PMC5773651
